target: Neurogenic locus notch homolog protein 2 (Homo sapiens); assay: Notch2 binders on small-molecule microarrays, primary screen, biochemical, small-molecule microarray, 635 nm fluorescence, stem cell growth factors (AID 1073); conditions: Notch2 binding, higher = more signal
Lab note: class by composite z-score, see bin 0 = under -0.06, bin 1 = from -0.06 up to 1, bin 2 = 1 and over

MOLECULE: CN(C)CCCNC(=O)[C@@]1(c2ccc([N+](=O)[O-])cc2)CC(=O)N(C2CCCCC2)[C@@H]1c1ccc(CO)cc1I
TARGET SYSTEM: Neurogenic locus notch homolog protein 2 (Homo sapiens)
CLASSIFICATION: bin 1

Q. For the record CCc1oc(CC[C@@H](CO)NC(=O)NCCn2cc(C3(O)CCCCC3)nn2)c(C(=O)OC)c1C(=O)OC , report the class its composite z-score corresponds to.
A. bin 1

Q. State the band of COC(=O)[C@@]1(Cc2ccc(OC)cc2)[C@H]2c3cc(C(=O)N(C)C)n(CCN4CNCC4=O)c3C[C@H]2CN1C(=O)c1ccccc1
A. bin 2

Q. Class? Entry: C=CCN1C(=O)[C@]2(O[C@H](CCO)[C@@H]([Si](C)(C)c3ccc(OC)cc3)[C@@H]2C)c2cc(N3CCCCC3=O)ccc21
A. bin 2

Q. In plain terms, what class is C=C(C)C1C(=C)CN([C@H](CO)c2ccccc2)C1=O (stereo partly specified) ?
A. bin 0
